Biological target: NF-kB p50/p50 homodimer (NFKB1) (Homo sapiens, UniProt P19838 P19838:1-433)
Sequence (P19838 1-433, one chain of several): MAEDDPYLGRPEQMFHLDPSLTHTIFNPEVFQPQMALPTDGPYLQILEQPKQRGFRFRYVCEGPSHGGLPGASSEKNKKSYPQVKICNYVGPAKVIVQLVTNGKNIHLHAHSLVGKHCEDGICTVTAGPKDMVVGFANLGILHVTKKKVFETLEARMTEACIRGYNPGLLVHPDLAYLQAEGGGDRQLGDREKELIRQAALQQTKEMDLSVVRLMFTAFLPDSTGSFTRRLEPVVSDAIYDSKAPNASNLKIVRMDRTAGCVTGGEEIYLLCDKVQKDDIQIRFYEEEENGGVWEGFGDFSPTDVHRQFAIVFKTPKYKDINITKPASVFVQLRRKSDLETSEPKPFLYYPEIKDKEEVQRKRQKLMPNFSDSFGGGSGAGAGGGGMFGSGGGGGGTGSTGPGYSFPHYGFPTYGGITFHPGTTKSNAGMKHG
Test: EMSA; competition vs 32P 113/114 probe
Conditions: protein: extract; tags: none; nuclear extract of LPS-stimulated THP-1 cells; chain copies: 2 (stated homodimer)
Lab note: compare IC50 with 30 fold molar excess, writing y if less and n if equal or more.

For orientation, consider the following solved cases.
{"BINDER": "decoy 263 H-Z (dsDNA) DNA 1: AGTTGAGGATTTCCAGGC DNA 2: GCCTGGAAATCCTCAACT", "GROUP LABEL": "n"}
{"BINDER": "decoy 113/114 C-Z (HIV NF-kB promoter) (dsDNA) DNA 1: AGTTGAGGGGACTTTCCCAGGC DNA 2: GCCTGGGAAAGTCCCCTCAACT", "GROUP LABEL": "y"}
{"BINDER": "153/154 PO (dsDNA, full phosphodiester, both strands) DNA 1: AGTTGAGGACTTTCCAGGC DNA 2: GCCTGGAAAGTCCTCAACT", "GROUP LABEL": "n"}
{"BINDER": "decoy 221 C-X (dsDNA) DNA 1: CTGGGGACTTTCCCTC DNA 2: GAGGGAAAGTCCCCAG", "GROUP LABEL": "y"}

Next:
Confirm or reject: IC50 of decoy 265 I-Z (dsDNA) DNA 1: AGTTGAGGATTTCCCAGGC DNA 2: GCCTGGGAAATCCTCAACT lies strictly below 30 fold molar excess
n
